- Test system: Plasmodium berghei
- ASSAY OVERVIEW: Screen against P. berghei liver stage (PbLuc), transformed with Luciferase, at 10uM
- Format: functional, HepG2
- DETAILS: tested at 10 uM
Hit rate of the full screen: of about 69,000 compounds, about 8,600 (12%) showed an effect of 50% or more. The full list was thinned out, with strong results kept by preference.
MEASURED METRIC: INHIBITION
Please state the number and follow it with the unit.

Sample answers from the record:
Cc1nc(NCc2nncn2C2CC2)c2c(CC(C)C)csc2n1
45.4%
COCC(NC(=O)c1cc[nH]n1)c1cccc(C(F)(F)F)c1 (centres undefined)
42.6%
NC(=O)c1cccc(CNCC=Cc2ccccc2)c1
17.1%

Exercise: Provide only the value of recorded INHIBITION for Cc1cc(C(F)(F)F)nn1CCCNC(=O)C1CCCC1
Solution: 43.2%

Exercise: Provide only the value of recorded INHIBITION for CO[C@@H]1CCC[C@@H](N(C)C(=O)c2cc(F)ccc2F)[C@H]1O
Solution: -10.4%

Exercise: Provide only the value of recorded INHIBITION for Cc1cc(C(F)(F)F)nn1CCCNC(=O)C1CCCO1 (centres undefined)
Solution: 60.4%

Exercise: Provide only the value of recorded INHIBITION for COCC(NC(=O)c1ccc[nH]1)c1cccc(C(F)(F)F)c1 (centres undefined)
Solution: 51.3%

Exercise: Provide only the value of recorded INHIBITION for Cc1ccc(NC(=O)CNC(C)CN2CCOCC2)c(F)c1 (centres undefined)
Solution: 41.5%

====

- Test system: Plasmodium berghei
- ASSAY OVERVIEW: Screen against P. berghei liver stage (PbLuc), transformed with Luciferase, at 10uM
- Format: functional, HepG2
- DETAILS: tested at 10 uM
The whole screen tested about 69,000 compounds, of which about 8,600 (12%) showed an effect of 50% or more. This excerpt belongs to a sample that is enriched for strong results.
Lab note: anything with INHIBITION at or over 10% counts as criterion met; the rest go in criterion not met.

Cc1cccc(NCc2ncc(C(C)(C)C)o2)c1
criterion met
COc1c(CNCc2ccc(N3CCCC3)nc2)c(C(C)C)nn1C
criterion not met

Exercise: Form field: INHIBITION at least 10%? Entry: Cc1ccc(CN2CCn3c(C(=O)N(C)C)cnc3C2)cc1
Solution: criterion met

Exercise: Form field: INHIBITION at least 10%? Entry: Cc1ccc(CN(C)Cc2ncc(C(C)(C)C)o2)o1
Solution: criterion met

Exercise: Form field: INHIBITION at least 10%? Entry: CN(C)C(=O)c1cnc2n1CCN(Cc1ccccc1)C2
Solution: criterion not met

====

- System: Plasmodium berghei
- ASSAY OVERVIEW: Screen against P. berghei liver stage (PbLuc), transformed with Luciferase, at 10uM
- Type: functional, HepG2
- DETAILS: tested at 10 uM
Out of some 69,000 compounds screened, about 8,600 (12%) showed an effect of 50% or more. The entries come from a sample that favours strong results as a whole.
Threshold check on INHIBITION: strictly below 30% is MET; on or above 30% is NOT MET.

CN(C(=O)Nc1ccncc1)C1CCN(c2ccc(Cl)cc2)CC1
NOT MET
Cc1cccc(S(=O)(=O)NCC2CCN(c3cnccn3)CC2)c1
MET
Cc1csc2c(C3CCCN(C(=O)CCn4ccnc4)C3)nc(C)n12 (stereo unspecified)
NOT MET
CSC(C)C(=O)N(C)C1CCN(c2ccc(Cl)cc2)CC1 (stereo unspecified)
NOT MET
O=C(CCCc1nc(C2CC2)no1)N1CCCC(c2ccn[nH]2)C1 (stereo unspecified)
NOT MET
CC(C)c1nc(C2CCCN(C(=O)CCn3cncn3)C2)no1 (stereo unspecified)
NOT MET

Read the next record carefully.
Exercise: Say whether its INHIBITION is strictly beneath 30%. Entry: COc1ccc(N2CCC(N3C[C@H](NC(C)=O)[C@@H](C(C)C)C3)CC2)cc1
Solution: NOT MET

====

- System: Plasmodium berghei
- ASSAY OVERVIEW: Screen against P. berghei liver stage (PbLuc), transformed with Luciferase, at 10uM
- Type: functional, HepG2
- DETAILS: tested at 10 uM
Screen size: about 69,000 compounds; about 8,600 (12%) showed an effect of 50% or more. The list comes from a sample in which strong results are over-represented; it also holds close analogues and randomly drawn compounds.
MEASURED METRIC: INHIBITION
Please state the number and follow it with the unit.

Exercise: Provide only the value of recorded INHIBITION for Cc1nc(-c2ccccc2)cc2nn(CC(N)=O)c(=O)n12
Solution: 28.6%

====

- System: Plasmodium berghei
- ASSAY OVERVIEW: Screen against P. berghei liver stage (PbLuc), transformed with Luciferase, at 10uM
- Format: functional, HepG2
- DETAILS: tested at 10 uM
Out of some 69,000 compounds screened, about 8,600 (12%) showed an effect of 50% or more. For the sample, strong results were picked, then their nearest neighbours and some compounds at random.
MEASURED METRIC: INHIBITION (%)
Unit % implied. Number only.

Sample answers from the record:
Cn1cc(C2COC3(CCN(C(=O)c4ccsc4)CC3)C2)cn1 (stereo unspecified)
69.5
Cn1cc(C2COC3(CCN(C(=O)c4ccc(F)cc4)CC3)C2)cn1 (stereo unspecified)
18.2
CC(C)Oc1ccc(CN2CCN3CCN(C)CC3C2)cc1CO (stereo unspecified)
-6.97

Exercise: Provide only the value of recorded INHIBITION for CN1CC(=O)N(c2ccsc2)CC12CCN(C(=O)c1ccc[nH]1)C2 (stereo unspecified)
Solution: 15.9

Exercise: Provide only the value of recorded INHIBITION for Cn1cc(C2COC3(CCN(C(=O)c4cccc(O)c4)CC3)C2)cn1 (stereo unspecified)
Solution: 32.2

Exercise: Provide only the value of recorded INHIBITION for CN1CC(=O)N(c2ccsc2)CC12CCN(C(=O)c1ccccc1)C2 (stereo unspecified)
Solution: 45.5

Exercise: Provide only the value of recorded INHIBITION for CC(C)Oc1ccc(CN2CCCC(N3CCCC3)C2)cc1CO (stereo unspecified)
Solution: 20

====

Recorded measurements of INHIBITION, one per entry
- Test system: Plasmodium berghei
- ASSAY OVERVIEW: Screen against P. berghei liver stage (PbLuc), transformed with Luciferase, at 10uM
- Format: functional, HepG2
- DETAILS: tested at 10 uM
About 8,600 (12%) of roughly 69,000 compounds showed an effect of 50% or more. Only a selection was taken, and strong results are over-represented in it overall.
Unit % implied. Number only.

Cc1ccc(Nc2cc(N3CCN(S(C)(=O)=O)CC3)nc(C)n2)cc1
-19.7

Exercise: Provide only the value of recorded INHIBITION for CCc1nc(N)nc(NCCC(=O)NC2CCCCC2)c1C
Solution: 41.5

Exercise: Provide only the value of recorded INHIBITION for CC(NC(=O)N1CCNC(=O)CC1)c1c(F)cccc1Cl (centres undefined)
Solution: -36.75

Exercise: Provide only the value of recorded INHIBITION for CCN(C)c1ncc2c(c1C(=O)O)CCN(C1CCOC1)C2 (centres undefined)
Solution: 33.4

Exercise: Provide only the value of recorded INHIBITION for COc1ccc(CC(=O)N2CCC(Nc3ccc(C)nn3)CC2)cc1
Solution: -16

Exercise: Provide only the value of recorded INHIBITION for c1cnn(CC2CCCCN2Cc2nc(-c3ccsc3)no2)c1 (centres undefined)
Solution: 0.914

Exercise: Provide only the value of recorded INHIBITION for Cc1ccc(C(C)NC(=O)CCc2cnn(C)c2)cc1F (centres undefined)
Solution: 33

Exercise: Provide only the value of recorded INHIBITION for CS(=O)(=O)Cc1ccc(Cl)cc1NCc1ccccc1F
Solution: 38

Exercise: Provide only the value of recorded INHIBITION for O=C(COc1ccc2c(c1)OCO2)NCc1ccco1
Solution: 31.135

Exercise: Provide only the value of recorded INHIBITION for CS(=O)(=O)c1ccc(NCc2ccccc2)cn1
Solution: 27.3

Exercise: Provide only the value of recorded INHIBITION for CC(=O)c1c(C)nn(S(=O)(=O)c2ccc(C)c(C)c2)c1C
Solution: 4.97

Exercise: Provide only the value of recorded INHIBITION for CC(C)(CNc1ccc(C#N)c(C(F)(F)F)c1)C(N)=O
Solution: -21

Exercise: Provide only the value of recorded INHIBITION for CN1CCN(c2ncc3c(c2C(=O)O)CCN(C2CCOC2)C3)CC1 (centres undefined)
Solution: 58.5

Exercise: Provide only the value of recorded INHIBITION for COC(=O)C(C)N1CCCc2cc(OC)ccc2C1 (centres undefined)
Solution: 59.2

Exercise: Provide only the value of recorded INHIBITION for CC(C)(C)C(=O)N1CCC(c2cnc(-c3cn[nH]c3)cn2)CC1
Solution: 3.62

Exercise: Provide only the value of recorded INHIBITION for COc1ccc2c(c1)CCCN(C(C)C(=O)NC(N)=O)C2 (centres undefined)
Solution: 1.79

Exercise: Provide only the value of recorded INHIBITION for CC(NCc1cnc(N2CCN(C)CC2)nc1)c1ccc(F)cc1 (centres undefined)
Solution: 26.5

Exercise: Provide only the value of recorded INHIBITION for CCc1cnc(N)nc1NCCC(=O)NC1CCCCC1
Solution: 68.4

Measured values drawn from ChEMBL document CHEMBL4513216 for this set.
